Provenance of the data: patent US20250043026A1

biological target: FcRn (Acro Biosystems) (human, UniProt P55899 24-297; P61769 21-119); experiment: BLI (Fortebio), FcRn loaded on HIS1K probe, pH 7.0
Sequence (P55899 24-297 limits assumed, chain 1 of 2): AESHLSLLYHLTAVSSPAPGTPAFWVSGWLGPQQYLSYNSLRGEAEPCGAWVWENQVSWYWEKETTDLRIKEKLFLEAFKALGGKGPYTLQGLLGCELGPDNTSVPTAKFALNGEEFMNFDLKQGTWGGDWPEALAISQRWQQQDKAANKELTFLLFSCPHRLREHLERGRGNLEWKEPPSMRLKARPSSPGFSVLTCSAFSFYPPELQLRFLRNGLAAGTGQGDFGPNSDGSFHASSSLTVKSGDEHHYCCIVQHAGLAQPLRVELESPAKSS
Sequence (P61769 21-119 limits assumed, chain 2 of 2): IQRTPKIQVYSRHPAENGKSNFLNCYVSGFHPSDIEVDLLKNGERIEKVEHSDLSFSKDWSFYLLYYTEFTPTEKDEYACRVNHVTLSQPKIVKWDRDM
MEASURE_NAME: kon (M⁻¹ s⁻¹)
One number for each entry, in M⁻¹ s⁻¹.

Please review the following examples before continuing.
Task item: Please report kon for the following binder: Fc variant m7 (other, N-glycan with 2,6-sialic acid (variant co-expressed with human GT and ST in ExpiCHO-S cells), Fc fragment variant of IgG1) DKTHTCPPCPAPELLGGPSVFLFPPKPKDTLYITREPEVTCVVEDVSHEDPEVKFNWYVDGVEVHNAKTKPREEQYNSTYRVVSVLTVLHQDWLNGKEYKCKVSNKALPAPIEKTISKAKGQPREPQVYTLPPSRDELTKNQVSLTCLVKGFYPSDIAVEWESNGQPENNYKTTPPVLDSDGSFFLYSKLTVDKSRWQQGNVFSCSVMHEALKFHYTQKSLSLSP
Reply: 221000

Task item: Please report kon for the following binder: Fc variant m1 (other, N-glycan with 2,6-sialic acid (variant co-expressed with human GT and ST in ExpiCHO-S cells), also called control m1) DKTHTCPPCPAPELLGGPSVFLFPPKPKDTLYITREPEVTCVVVDVSHEDPEVKFNWYVDGVEVHNAKTKPREEQYNSTYRVVSVLTVLHQDWLNGKEYKCKVSNKALPAPIEKTISKAKGQPREPQVYTLPPSRDELTKNQVSLTCLVKGFYPSDIAVEWESNGQPENNYKTTPPVLDSDGSFFLYSKLTVDKSRWQQGNVFSCSVMHEALKFHYTQKSLSLSP
Reply: 214000

Task item: Please report kon for the following binder: Fc variant m3 (other, N-glycan with 2,6-sialic acid (variant co-expressed with human GT and ST in ExpiCHO-S cells), Fc fragment variant of IgG1) DKTHTCPPCPAPELLGGPSVALFPPKPKDTLYITREPEVTCVVVDVSHEDPEVKFNWYVDGVEVHNAKTKPREEQYNSTYRVVSVLTVLHQDWLNGKEYKCKVSNKALPAPIEKTISKAKGQPREPQVYTLPPSRDELTKNQVSLTCLVKGFYPSDIAVEWESNGQPENNYKTTPPVLDSDGSFFLYSKLTVDKSRWQQGNVFSCSVMHEALKFHYTQKSLSLSP
Reply: 272000

Task item: Please report kon for the following binder: Fc variant m5 (other, N-glycan with 2,6-sialic acid (variant co-expressed with human GT and ST in ExpiCHO-S cells), Fc fragment variant of IgG1) DKTHTCPPCPAPELLGGPSVFLFPPKPKDTLYITREPEVTCVVVDVSHEDPEVKFNWYVDGVEVHNAKTKPREQYNSTYRVVSVLTVLHQDWLNGKEYKCKVSNKALPAPIEKTISKAKGQPREPQVYTLPPSRDELTKNQVSLTCLVKGFYPSDIAVEWESNGQPENNYKTTPPVLDSDGSFFLYSKLTVDKSRWQQGNVFSCSVMHEALKFHYTQKSLSLSP
Reply: 347000

// below: kon requested for another binder
Task item: Please report kon for the following binder: Fc variant m4 (other, N-glycan with 2,6-sialic acid (variant co-expressed with human GT and ST in ExpiCHO-S cells), Fc fragment variant of IgG1) DKTHTCPPCPAPELLGGPSVFLAPPKPKDTLYITREPEVTCVVVDVSHEDPEVKFNWYVDGVEVHNAKTKPREEQYNSTYRVVSVLTVLHQDWLNGKEYKCKVSNKALPAPIEKTISKAKGQPREPQVYTLPPSRDELTKNQVSLTCLVKGFYPSDIAVEWESNGQPENNYKTTPPVLDSDGSFFLYSKLTVDKSRWQQGNVFSCSVMHEALKFHYTQKSLSLSP
Reply: 298000
